// data source = patent US9670157B2

target: Human plasma kallikrein (Homo sapiens (Human)); assay: Determination of the IC50 for Plasma Kallikrein; type: biochemical; details: 37° C., fluorogenic substrate H-DPro-Phe-Arg-AFC; read-out: IC50 (human PKal)
Sequence (P03952 391-638): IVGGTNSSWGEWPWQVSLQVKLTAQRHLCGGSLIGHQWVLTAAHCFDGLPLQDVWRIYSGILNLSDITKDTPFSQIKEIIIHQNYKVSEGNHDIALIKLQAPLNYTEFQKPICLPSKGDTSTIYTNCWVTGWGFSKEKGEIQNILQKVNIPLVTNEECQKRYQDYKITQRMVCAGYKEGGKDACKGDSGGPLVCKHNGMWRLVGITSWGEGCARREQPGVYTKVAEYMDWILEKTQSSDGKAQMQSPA
Sequence (P03952 20-390 partner): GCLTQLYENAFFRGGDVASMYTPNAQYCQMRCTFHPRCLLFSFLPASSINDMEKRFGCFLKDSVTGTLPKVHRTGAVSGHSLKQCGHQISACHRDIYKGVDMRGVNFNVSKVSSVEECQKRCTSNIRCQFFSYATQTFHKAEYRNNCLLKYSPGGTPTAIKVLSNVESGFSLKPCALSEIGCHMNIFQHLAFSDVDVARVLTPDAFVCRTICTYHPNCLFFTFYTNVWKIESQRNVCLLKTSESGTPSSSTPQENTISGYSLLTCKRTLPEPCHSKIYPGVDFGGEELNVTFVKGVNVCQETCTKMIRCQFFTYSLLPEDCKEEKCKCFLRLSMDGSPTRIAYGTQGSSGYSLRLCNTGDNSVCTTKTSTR
// values below are reported pIC50
Scale: negative log10 of molar concentration, which is what pIC50 denotes.

{"columns": ["Compound smiles", "pIC50"],
 "data": [
  ["Cc1nc(-c2ccc(Cn3c(C)cc(C(=O)NCc4ccc(CN)cc4)c3C)s2)cs1", 5.80]
]}

Query: Item under review: `Cc1cc(C(=O)NCc2ccc(CN)cc2)c(C)n1Cc1csc(-c2cccnc2)c1` . Reported pIC50?
Response: 6.46

Query: Could you do the same for `NCc1ccc(CNC(=O)c2cnn(Cc3csc(-c4ccccc4)n3)c2C(F)(F)F)cc1` , please?
Response: 6.31
